biological target: 5-hydroxytryptamine receptor 6 (Rattus norvegicus) (UniProt P31388); experiment: Displacement of [3H]-LSD from rat 5-Ht6 receptor expressed in HEK cells at 10 uM after 60 mins by liquid scintillation counting; format: cell-based; settings: HEK293
Sequence (P31388 whole entry): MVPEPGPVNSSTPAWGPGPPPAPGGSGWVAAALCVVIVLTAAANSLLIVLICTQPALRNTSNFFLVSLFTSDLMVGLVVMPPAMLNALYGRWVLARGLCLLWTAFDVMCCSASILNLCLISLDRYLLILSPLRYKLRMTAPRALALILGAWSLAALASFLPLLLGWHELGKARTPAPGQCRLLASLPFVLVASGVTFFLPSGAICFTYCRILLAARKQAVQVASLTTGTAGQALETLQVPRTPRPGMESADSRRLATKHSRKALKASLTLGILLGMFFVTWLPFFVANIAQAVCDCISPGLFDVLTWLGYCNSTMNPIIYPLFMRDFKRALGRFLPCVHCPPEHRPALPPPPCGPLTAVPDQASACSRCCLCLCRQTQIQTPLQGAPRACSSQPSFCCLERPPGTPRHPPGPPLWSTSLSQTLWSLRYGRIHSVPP
measured_attribute: log(%)
// print number alone

Input CC(C)(C)NC(=O)C(C1CCCCC1)N1CCc2c([nH]c3ccccc23)CC1=O (centres undefined) . Output log(%): 1

Just so you know, measured log(%) for CC(C)(C)NC(=O)C(c1ccc(Br)cc1)N1CCc2c([nH]c3ccccc23)CC1=O (centres undefined) came out at 1.82

Looking up O=C(NC1CCCCC1)C(c1ccc(Cl)cc1)N1CCc2c([nH]c3ccccc23)CC1=O (centres undefined) , I found its log(%) recorded as 1.18

// log(%) lookup, compound = CN(C)c1ccc(C(c2nnnn2C(C)(C)C)N2CCc3c([nH]c4ccccc34)CC2=O)cc1 (centres undefined) , result: 0

Record summary for COc1cccc(C(c2nnnn2C(C)(C)C)N2CCc3c([nH]c4ccccc34)CC2=O)c1OC (centres undefined) : reported log(%) = 1.2

Documented log(%) of CC(C)(C)NC(=O)C(c1ccc(Cl)cc1)N1CCc2c([nH]c3ccccc23)CC1=O (centres undefined) : 1.62

Entry Cc1cccc(C)c1-n1nnnc1C(c1ccc(Cl)cc1)N1CCc2c([nH]c3ccccc23)CC1=O (centres undefined) — recorded log(%) = 1.28

Just so you know, measured log(%) for CN(C)c1ccc(C(C(=O)NC(C)(C)C)N2CCc3c([nH]c4ccccc34)CC2=O)cc1 (centres undefined) came out at 1.2

Quick note, log(%) for Cc1cccc(C)c1NC(=O)C(C1CCCCC1)N1CCc2c([nH]c3ccccc23)CC1=O (centres undefined) landed at 0.85

Form: compound = CC(C)(C)n1nnnc1C(c1ccc(Br)cc1)N1CCc2c([nH]c3ccccc23)CC1=O (centres undefined) ; log(%) = 1.76

The value of log(%) measured for the compound CSc1ccc2c(c1)C(N1CCN(C)CC1)Cc1ccccc1S2 (centres undefined) turned out to be 2

Noted for CC(C)(C)NC(=O)C(c1ccc2c(c1)OCO2)N1CCc2c([nH]c3ccccc23)CC1=O (centres undefined) : its log(%) reads 0.85

response.value for COc1cccc(C(C(=O)NC(C)(C)C)N2CCc3c([nH]c4ccccc34)CC2=O)c1OC (centres undefined) (field: log(%)) = 1.98

Recorded result, CC(C)(C)n1nnnc1C(c1ccc(Cl)cc1)N1CCc2c([nH]c3ccccc23)CC1=O (centres undefined) , log(%): 1.04

Record Cc1cccc(C)c1NC(=O)C(c1ccc(Cl)cc1)N1CCc2c([nH]c3ccccc23)CC1=O (centres undefined) , field log(%): 1.32

The compound listed as CC(C)(C)n1nnnc1C(C1CCCCC1)N1CCc2c([nH]c3ccccc23)CC1=O (centres undefined) shows log(%) equal to 0.3

Sure, the documented log(%) for Cc1cccc(C)c1-n1nnnc1C(C1CCCCC1)N1CCc2c([nH]c3ccccc23)CC1=O (centres undefined) is 0.48

Entry under test: O=C1Cc2[nH]c3ccccc3c2CCN1C(c1ccc(Cl)cc1)c1nnnn1C1CCCCC1 (centres undefined) . Its log(%) was 1.23

# compound CC(C)(C)n1nnnc1C(c1ccc2c(c1)OCO2)N1CCc2c([nH]c3ccccc23)CC1=O (centres undefined) ; its log(%) = 1.08
